Listing: activity remaining of selected compounds
Tested on: Aerobactin synthetase IucA (Klebsiella pneumoniae hvKP1)
method_notes: Biochemical IucA enzyme inhibition primary screen of the Spectrum library (AID 1346200);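 note: 100% = wells without compound and 0% = wells lacking enzyme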
condition_notes: malachite green pyrophosphate, A620, at 8 µM, hits give low values
quantity_measured: activity remaining (%)

{"columns": ["compound", "reported_result"],
 "data": [
  ["Nc1ccc(S(=O)(=O)Nc2ncccn2)cc1", 120],
  ["CC(=O)OCC1=C(C(=O)O)N2C(=O)[C@@H](NC(=O)CSc3ccncc3)[C@H]2SC1", 109],
  ["O=C1C(O)=C(O)C(=O)C(O)=C1O", 125],
  ["COC(=O)[C@H]1[C@H]2C[C@H]3c4[nH]c5ccccc5c4CCN3C[C@H]2CC[C@@H]1O", 107],
  ["COc1ccc(-c2oc3cc(OC)c(OC)c(OC)c3c(=O)c2OC)cc1OC", 83.1],
  ["O=c1cc(-c2ccc(O)cc2)oc2cc(O)cc(O)c12", 113],
  ["C1CNCCN1", 120],
  ["CSc1ccc2c(c1)C(N1CCN(C)CC1)Cc1ccccc1S2 (configuration not stated)", 103],
  ["NC(=O)CN1CCCC1=O", 112],
  ["COC1=C(O)C(=O)c2c(cc3oc(C(C)=O)c(O)c3c2O)C1=O", 108],
  ["CCOc1nc2cccc(C(=O)OC(C)OC(=O)OC3CCCCC3)c2n1Cc1ccc(-c2ccccc2-c2nn[nH]n2)cc1 (configuration not stated)", 104],
  ["CN1CCC[C@@H]1CCO[C@](C)(c1ccccc1)c1ccc(Cl)cc1", 99.3]
]}
